Target: Glucocorticoid receptor (Homo sapiens)
Assay: qHTS assay for small molecule agonists of glucocorticoid receptor signaling (AID 588532);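 note: 100% = dexamethasone at 0.1 µM and 0% = DMSO only wells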
Settings: HeLa MMTV-bla, beta-lactamase ratio, agonist, 18 h; stronger effect = higher value; percent of dexamethasone control, DMSO zero
Results filed as inconclusive are left out.
Measurement name: activation (%)
One number for each entry, in %.

Worked examples follow.
O=C(Cl)C(Cl)(Cl)Cl; -1.29
Cc1cccc(C#N)c1; -3.56
ClC(Cl)=C(Cl)C(Cl)=C(Cl)Cl; -16.2
CCOc1ccc(N)cc1; 2.46

Please report activation for every entry that follows.
1. CNC(=O)Oc1ccccc1OC(C)C
2. C=C(C)C(=O)OCC1CO1 (centres undefined)
3. c1nc[nH]n1
4. C=CCOC(C)=O

Output:
[-7.67, -3.77, 11.9, 10.3]

Please supply activation for each of the following items, keeping them in order.
1. C=CCOC(=O)c1ccccc1N
2. Nc1ccc(Br)cc1
3. CC(C)(C)OOC(C)(C)C

Output:
[3.1, -2.07, -1.7]

Record activation for all entries; do not skip any.
1. CCS(=O)CCSP(=O)(OC)OC (centres undefined)
2. CCCCCCCC(=O)Cl
3. O=C(O)COc1cc(Cl)c(Cl)cc1Cl

Output:
1. 2.31
2. 5.97
3. -6.14

====

Experiment: Primary qHTS to identify inhibitors of SARS-CoV-2 cell entry (AID 1645846); note: nearly all actives have a fitted effect of over 45% in size; note: potency is the fitted concentration of half-maximal effect
Settings: SARS-CoV-2 pseudovirus cell entry assay, luminescence
Records with an inconclusive call do not appear. Activity calls are given as the source filed them. Calls follow the shape of the full dose curve.
Measurement name: Potency

CNS(=O)(=O)CC1CCC(N(C)c2ncnc3[nH]ccc23)CC1 (configuration not stated); inactive
CN1C(=O)[C@@H](NC(=O)c2n[nH]c(Cc3ccccc3)n2)COc2ccccc21; inactive
COC(C)(C)CCn1nc(Nc2c(C)cccc2C)c2cnc(Nc3ccc(OCCN4CCCC4)c(F)c3)nc21; 11.2 µM (active)
C[C@]12CC[C@H](O)C[C@H]1CCC1C2CC[C@]2(C)[C@@H](c3ccc(=O)oc3)C[C@H]3O[C@]132 (some centres not stated); 7.08 µM (active)
CN(C(=O)/C=C/c1ccoc1)[C@@H]1CC[C@@]2(O)[C@H]3Cc4ccc(O)c5c4[C@@]2(CCN3CC2CC2)[C@H]1O5; inactive

I need Potency for every entry listed below, if you could help.
1. Cc1c[nH]c2nc(Nc3ccc(N4CCN(C)CC4)c(F)c3)nc(-c3cccc(CC#N)c3)c12
2. CO/C1=C/C(C)=C\[C@@H](C)[C@@H](O)[C@@H](C)C/C(C)=C\C=C/[C@H](OC)[C@@H]([C@@H](C)[C@@H](O)[C@H](C)[C@@]2(O)C[C@@H](O)[C@H](C)[C@@H](C(C)C)O2)OC1=O

Output:
1. 2.51 µM (active)
2. 1.58 µM (active)

====

System: CP286
Test: qHTS profiling for inhibitors of Plasmodium falciparum proliferation (AID 504749);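 note: 0% = DMSO vehicle and full inhibition = artemisinin control; nearly all actives have a fitted effect of over 60% in size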
Conditions: P. falciparum in erythrocytes, SYBR Green DNA, 72 h; series mostly up to 28.7 µM
Results filed as inconclusive are left out. Activity calls are given as the source filed them. Calls come from the whole dose curve; as a rule, active = well fitted inhibition curve with a large enough effect; inconclusive = small, poorly fitted or top-dose-only effect; inactive = flat fitted curve, though single readings scatter.
Measurement name: outcome

Example compounds with recorded outcome:
COc1cc2c(cc1OC)[C@@]13CCN4CC5=CCOC6CC(=O)N2C1[C@H]6[C@@H]5C[C@@H]43 (stereo partly drawn); inactive
CN(C)C(=O)Oc1cc(OC(=O)N(C)C)cc([C@@H](O)CNC(C)(C)C)c1; inactive
COc1cc(N)c(Cl)cc1C(=O)N[C@@H]1CN2CCC1CC2; inactive
C[C@H]1CN(C2CCC(C#N)(c3ccc(F)cc3)CC2)CC[C@@]1(C(=O)O)c1ccccc1 (stereo partly drawn); inactive
C[N+]1([O-])[C@@H]2CC[C@H]1CC(OC(=O)[C@@H](CO)c1ccccc1)C2 (stereo partly drawn); inactive

Dear reader, for each entry below, please note its outcome.
1. C[N+]1(C)[C@@H]2CC[C@H]1CC(OC(=O)[C@@H](CO)c1ccccc1)C2 (stereo partly drawn)
2. CC(C)N(CC[C@@](C(N)=O)(c1ccccc1)c1ccccn1)C(C)C
3. CNc1ccc(C(=O)CC(O)CCC(C)C2OC(=O)CC(O)CC(=O)CC(O)CC(O)CC(O)CC(O)CC3(O)CC(O)C(C(=O)OC)C(CC(O[C@@H]4OC(C)C(O)C(N)C4O)/C=C/C=C/C=C/C=C/C=C/C=C/C=C/C2C)O3)cc1 (stereo partly drawn)

Output:
1: inactive; 2: inactive; 3: inactive

====

Assay: qHTS Assay for Identifying Gametocytocidal Compounds (AID 743244); note: potency is the fitted concentration of half-maximal effect
Details: P. falciparum 3D7 stage III-V gametocytes, alamarBlue, 72 h
Records with an inconclusive call do not appear. The source made the active and inactive calls. Calls follow the shape of the dose curve; as a rule, active = well fitted curve in the direction sought with a large enough effect; inconclusive = small, poorly fitted or top-dose-only effect, or another doubt; inactive = no such curve, though single readings can be large or run the other way.
Please provide measured Potency for the entries that follow.

Use the examples below as a reference point.
C#C[C@]1(O)CC[C@H]2[C@@H]3CCC4=CC(=O)CC[C@@H]4[C@H]3C(=C)C[C@@]21CC; 7.43 µM (active)
CCCCC(=O)OCC(=O)[C@]1(O)Cc2c(O)c3c(c(O)c2[C@@H](O[C@H]2C[C@H](NC(=O)C(F)(F)F)[C@H](O)[C@H](C)O2)C1)C(=O)c1c(OC)cccc1C3=O; 7.08 µM (active)
COC(=O)[C@]12CCC(C)(C)C[C@H]1[C@H]1C(=O)C=C3[C@@]4(C)C=C(C#N)C(=O)C(C)(C)[C@@H]4CC[C@@]3(C)[C@]1(C)CC2; 5.01 µM (active)
CCN(CC)Cc1cc(Nc2ccnc3cc(Cl)ccc23)ccc1O; 11.2 µM (active)
CCCC(CCC)C(=O)OC1C[C@H]2CC[C@@H](C1)[N+]2(C)C (stereo partly specified); 10 µM (active)

# ---- query molecule ----
Task: Determine its reported Potency: CC[C@@H](C(=O)O)[C@@H]1O[C@@H]([C@@H](C)[C@H](O)[C@H](C)C(=O)[C@H](CC)[C@H]2O[C@]3(C=C[C@@H](O)[C@]4(CC[C@@](C)([C@H]5CC[C@](O)(CC)[C@H](C)O5)O4)O3)[C@H](C)C[C@@H]2C)[C@@H](C)C[C@@H]1C
Output: 0.316 µM (active)

====

Target: Rap guanine nucleotide exchange factor 3 (Homo sapiens) (UniProt O95398)
Sequence (O95398 whole entry, looked up): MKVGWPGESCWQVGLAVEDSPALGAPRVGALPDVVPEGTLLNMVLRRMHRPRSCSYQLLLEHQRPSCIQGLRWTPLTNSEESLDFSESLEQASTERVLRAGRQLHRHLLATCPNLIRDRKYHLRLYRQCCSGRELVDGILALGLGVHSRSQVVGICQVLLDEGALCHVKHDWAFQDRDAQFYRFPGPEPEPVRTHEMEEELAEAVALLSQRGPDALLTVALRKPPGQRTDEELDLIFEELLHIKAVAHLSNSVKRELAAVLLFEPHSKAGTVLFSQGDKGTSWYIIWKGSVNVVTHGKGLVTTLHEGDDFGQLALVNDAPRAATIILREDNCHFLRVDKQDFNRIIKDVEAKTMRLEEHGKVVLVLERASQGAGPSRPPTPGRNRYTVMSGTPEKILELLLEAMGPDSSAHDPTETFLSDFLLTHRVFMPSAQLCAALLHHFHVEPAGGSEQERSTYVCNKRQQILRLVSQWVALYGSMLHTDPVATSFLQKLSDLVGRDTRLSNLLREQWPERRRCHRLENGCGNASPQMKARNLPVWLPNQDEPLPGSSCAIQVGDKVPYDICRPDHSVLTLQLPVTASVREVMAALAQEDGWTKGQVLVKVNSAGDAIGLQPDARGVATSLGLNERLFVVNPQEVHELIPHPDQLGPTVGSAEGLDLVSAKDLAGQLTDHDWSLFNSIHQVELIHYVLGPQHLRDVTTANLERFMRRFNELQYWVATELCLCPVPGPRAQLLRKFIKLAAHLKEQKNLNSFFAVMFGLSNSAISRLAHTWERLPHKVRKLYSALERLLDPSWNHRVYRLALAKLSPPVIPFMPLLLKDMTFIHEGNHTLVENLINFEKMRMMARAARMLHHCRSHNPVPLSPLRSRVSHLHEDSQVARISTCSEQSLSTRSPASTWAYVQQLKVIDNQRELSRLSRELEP
Assay: Confirmatory qHTS for antagonist of cAMP-regulated guanine nucleotide exchange factor 3 (EPAC1) (AID 1645880); note: nearly all actives have a fitted effect of over 55% in size
Conditions: EPAC1 Rap1B-BODIPY-GDP exchange, fluorescence; series mostly up to 115 µM
Results filed as inconclusive are left out. Active and inactive are the calls of the source. Calls follow the shape of the dose curve; as a rule, active = well fitted inhibition curve with a large enough effect; inconclusive = small, poorly fitted or top-dose-only effect; inactive = no such curve, though single readings can be large or run the other way.
Please answer using one outcome listed in Y = active, N = inactive

Cc1cc(/C=C2\C(=O)NC(=O)N(c3ccc(Cl)cc3)C2=O)c(C)n1-c1sc2c(c1C#N)CCCC2; Y
COC(=O)C1=C(c2cc3ccccc3s2)C[C@@H]2CC[C@H]1N2C(=O)NC1CC1; N
CCn1c(O)c(C=Nc2ccc(N3CCOCC3)cc2)c(=O)n(CC)c1=S; N
CCOC(=O)c1cc(CC)sc1/N=C/c1c(O)[nH]c(=S)[nH]c1=O; N

Task: # fetch the recorded call for Cc1cccc(N2C(=O)NC(=O)/C(=C\c3cc(C)n(-c4sc5c(c4C#N)CCCC5)c3C)C2=O)c1C here
Output: Y

Task: Lab log entry: O=C1c2ccccc2-c2cccc3cccc1c23 — outcome as called in the assay?
Output: N

====

Test: HPAF-II Cancer Cell Toxicity qHTS against the NCATS CANVASS Library (AID 1347346); note: nearly all actives have a fitted effect of over 55% in size
Settings: HPAF-II viability, CellTiter-Glo ATP luminescence, 72 h; series mostly up to 38.3 µM
Records with an inconclusive call do not appear. Active and inactive are the calls of the source. Calls follow the shape of the dose curve; as a rule, active = well fitted cell-killing curve with a large enough effect; inconclusive = small, poorly fitted or top-dose-only effect; inactive = flat fitted curve, though single readings scatter.
Answer with one of the outcomes given here: active, inactive

O[C@H]1C=C[C@@]23CCN(Cc4cc5c(cc42)OCO5)[C@@H]3C1; inactive
CO[C@H]1C[C@H](O[C@H]2[C@@H](O)C[C@H](O[C@H]3CC[C@]4(C=O)[C@H]5CC[C@]6(C)C(C7=CC(=O)OC7)CC[C@]6(O)[C@@H]5CC[C@]4(O)C3)O[C@@H]2C)O[C@H](C)[C@H]1O[C@H]1C[C@@H](OC)[C@@H](O[C@@H]2O[C@H](CO)[C@@H](O)[C@H](O)[C@H]2O)[C@@H](C)O1 (stereo not given in full); active
C/C(=C\[C@H](C)C(=O)C[C@H](O)CC1CC(=O)NC(=O)C1)[C@@H]1OC(=O)/C=C/CC/C=C/C=C/[C@@H]1C; active
CO[C@H]1[C@H](O[C@H]2CC[C@]3(C=O)[C@H]4CC[C@]5(C)[C@@H](C6=CC(=O)OC6)CC[C@]5(O)[C@@H]4CC[C@]3(O)C2)O[C@H](C)[C@H](O)[C@@H]1OC; active

Task: Per the assay record, what outcome was assigned to C/C=C1/CN2C3CC1C1=CCC(=O)N4c5ccccc5[C@@]3(C[C@@H]2C2=C[C@H]3C5CC6N(CC[C@@]67c6ccccc6N(C2=O)[C@@H]37)C/C5=C/C)[C@H]14 (stereo not given in full) ?
Output: active
